Tgt: Eukaryotic translation initiation factor 4E (Mus musculus)
Sequence (P63073 whole entry): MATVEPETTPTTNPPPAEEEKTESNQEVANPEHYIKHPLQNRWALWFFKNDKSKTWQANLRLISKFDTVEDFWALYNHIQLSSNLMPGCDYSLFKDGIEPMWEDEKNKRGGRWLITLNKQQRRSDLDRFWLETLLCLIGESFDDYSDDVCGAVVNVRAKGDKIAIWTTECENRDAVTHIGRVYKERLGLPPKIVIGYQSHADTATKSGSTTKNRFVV
Test method notes: eIF4E–eIF4G protein interaction inhibitors, dose response, biochemical, TR-FRET (AID 855);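 also: potency for disrupting eIF4E binding to eIF4GI seen as loss of FRET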
Type: functional
The source made the active and inactive calls. No rule for the calls is given here.
Could you please pick one outcome from this set? active, inactive

Some solved cases for reference:
# fetch the recorded call for O=C1NC(c2ccc3c(c2)OCO3)Oc2ccccc21 (stereo not given) here inactive

# fetch the recorded call for CCOC(=O)c1ccc2c(c1)C1C=CCC1C(C(=O)O)N2 (stereo not given) here active

---
# fetch the recorded call for `CC[n+]1c(/C=C/c2c[nH]c3ccccc23)ccc2cc(C)ccc21` here inactive

# fetch the recorded call for `CCCCCCCCCCCCCCCC[n+]1cccc(C(=O)N(CC)CC)c1` here active

# fetch the recorded call for `CCNC(=O)C1=C(O)c2sccc2N(C)S1(=O)=O` here inactive
